A collection of sequences and their measured P8_MAL Rank (after)
- target_desc: MAL^TIR (Homo sapiens, UniProt P58753)
- Construct: MAL (residues 79–221); 6xHis; made in house; host or cells: E. coli BL21 (DE3)
- Sequence (P58753 79-221): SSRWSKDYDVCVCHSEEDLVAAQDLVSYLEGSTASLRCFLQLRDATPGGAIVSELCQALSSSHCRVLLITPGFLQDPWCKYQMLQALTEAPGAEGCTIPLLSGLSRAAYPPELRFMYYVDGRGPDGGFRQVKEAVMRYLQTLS
- assay_procedure: T‐Surf phage library (P8 and P3) selection against MAL^TIR, four rounds, NGS read counts
- Assay type: binding
- measurement_context: P8 library, selection against MAL TIR; rank by count after grouping
measurement_label: P8_MAL Rank (after)

[
  {
    "monomer_sequence": "CFYEGQLFLALADKSI",
    "target_desc": "MAL^TIR (Homo sapiens, UniProt P58753)",
    "measurement_label": "P8_MAL Rank (after)",
    "experimental_result": 284
  },
  {
    "monomer_sequence": "TLLCHLYNALVQAGIH",
    "target_desc": "MAL^TIR (Homo sapiens, UniProt P58753)",
    "measurement_label": "P8_MAL Rank (after)",
    "experimental_result": 239
  },
  {
    "monomer_sequence": "AFLYTFLNTLTHPTNF",
    "target_desc": "MAL^TIR (Homo sapiens, UniProt P58753)",
    "measurement_label": "P8_MAL Rank (after)",
    "experimental_result": 209
  },
  {
    "monomer_sequence": "EKIVEWVWGKVHRTFK",
    "target_desc": "MAL^TIR (Homo sapiens, UniProt P58753)",
    "measurement_label": "P8_MAL Rank (after)",
    "experimental_result": 207
  },
  {
    "monomer_sequence": "RKFEAYLFQALANKGI",
    "target_desc": "MAL^TIR (Homo sapiens, UniProt P58753)",
    "measurement_label": "P8_MAL Rank (after)",
    "experimental_result": 208
  },
  {
    "monomer_sequence": "WFYEFLVFLILRDTKV",
    "target_desc": "MAL^TIR (Homo sapiens, UniProt P58753)",
    "measurement_label": "P8_MAL Rank (after)",
    "experimental_result": 251
  },
  {
    "monomer_sequence": "AFFWEQLRTVLGKPSI",
    "target_desc": "MAL^TIR (Homo sapiens, UniProt P58753)",
    "measurement_label": "P8_MAL Rank (after)",
    "experimental_result": 194
  },
  {
    "monomer_sequence": "ALCWAQLKIVLANLPI",
    "target_desc": "MAL^TIR (Homo sapiens, UniProt P58753)",
    "measurement_label": "P8_MAL Rank (after)",
    "experimental_result": 271
  },
  {
    "monomer_sequence": "GFFERLVRMILRDTKV",
    "target_desc": "MAL^TIR (Homo sapiens, UniProt P58753)",
    "measurement_label": "P8_MAL Rank (after)",
    "experimental_result": 263
  },
  {
    "monomer_sequence": "IFCISCCLAVRKPSI",
    "target_desc": "MAL^TIR (Homo sapiens, UniProt P58753)",
    "measurement_label": "P8_MAL Rank (after)",
    "experimental_result": 241
  },
  {
    "monomer_sequence": "RNFMAYLFQALAHKGI",
    "target_desc": "MAL^TIR (Homo sapiens, UniProt P58753)",
    "measurement_label": "P8_MAL Rank (after)",
    "experimental_result": 202
  },
  {
    "monomer_sequence": "WFYERLVSLILRYTKE",
    "target_desc": "MAL^TIR (Homo sapiens, UniProt P58753)",
    "measurement_label": "P8_MAL Rank (after)",
    "experimental_result": 222
  },
  {
    "monomer_sequence": "AFFWAHLKSVLGKPTM",
    "target_desc": "MAL^TIR (Homo sapiens, UniProt P58753)",
    "measurement_label": "P8_MAL Rank (after)",
    "experimental_result": 233
  },
  {
    "monomer_sequence": "AFFWAQVKSVLGNTTM",
    "target_desc": "MAL^TIR (Homo sapiens, UniProt P58753)",
    "measurement_label": "P8_MAL Rank (after)",
    "experimental_result": 264
  },
  {
    "monomer_sequence": "YFLHFLLLAVRKPSI",
    "target_desc": "MAL^TIR (Homo sapiens, UniProt P58753)",
    "measurement_label": "P8_MAL Rank (after)",
    "experimental_result": 196
  },
  {
    "monomer_sequence": "RNSVAYLFQALADKGI",
    "target_desc": "MAL^TIR (Homo sapiens, UniProt P58753)",
    "measurement_label": "P8_MAL Rank (after)",
    "experimental_result": 270
  }
]
